// data source = PubChem BioAssay (NCI)

System: A498 renal
Assay: NCI-60 one-dose screen, 48 h (100 = growth as untreated, 0 = no growth, -100 = all killed)
Settings: 10 µM
The panel holds about 83,000 compounds, 20% with a hit somewhere; the sample as a whole holds those more often.
Observable: growth (%)
# unit: % | format: bare number

Entry `COc1cc([N+](=O)[O-])c2nc(C)ccc2c1[N+](=O)[O-]` under A498 renal had growth of 121

Considering CC[C@H](C)[C@H](NC(=O)C12C3C4C1C1C2C3C41NC)C(=O)N(C)[C@H](C[C@@H](OC(C)=O)c1nc(C(=O)N[C@@H](Cc2ccccc2)C[C@H](C)C(=O)OC)cs1)C(C)C (some centres not stated) , its growth with A498 renal was recorded as -12.6

New cases:
The observed growth for NC(=S)c1cn(C2OC(CO)C(O)C2O)c2ncnc(N)c12 (configuration not stated) when tested with A498 renal stands at -32.5

The compound `CCOC(=O)N1CC1` , tested on A498 renal, showed growth of 111

Given the compound `CC(=O)O[C@H]1C(=O)[C@@]2(C)[C@H]([C@H](OC(=O)c3ccccc3)[C@]3(O)C[C@H](OC(=O)[C@H](OC(=O)OC[C@H]4COC(C)(C)O4)[C@@H](NC(=O)c4ccccc4)c4ccccc4)C(C)=C1C3(C)C)[C@]1(OC(C)=O)CO[C@@H]1C[C@@H]2O` and test system A498 renal, the measured growth is 21.1

growth of `CCn1nccc1NC(=O)C(=O)c1cn(Cc2ccc(F)cc2)c2cccc(OC)c12` , assay on A498 renal, is 94.1

The reported growth value, A498 renal, for `C[C@]12CCc3sc(NCCc4ccccc4)nc3C1=CC[C@@H]1[C@@H]2CC[C@]2(C)C(=O)CC[C@@H]12` reads 86.9

Entry `Nc1ccc2c(c1)Cc1cc(Br)ccc1-2` ; assay system A498 renal; growth recorded at 76.4

Known value: A498 renal growth of the compound `CCN(CC)CCOC(=O)C(OC(C)C)(c1ccccc1)c1ccccc1` equals 72.6

Field growth (A498 renal), entry `CC(=O)Oc1ccccc1C(=O)NCCC[Se]C#N` : -2.68

For `C/C(=C\c1cc(C(F)(F)F)nn1CCNC(=O)OC(C)(C)C)[C@@H]1C[C@@H]2O[C@]2(C)CCC[C@H](C)[C@H](O)[C@@H](C)C(=O)C(C)(C)[C@@H](O)CC(=O)O1` on A498 renal, measured growth was 49.3

Known value: A498 renal growth of the compound Cc1ccc2c(C(C[N+](=O)[O-])c3cccs3)c(-c3ccccc3)[nH]c2c1 (configuration not stated) equals -19.6
